# Test system: TC320X6
# assay: Cell viability (WST-1) with 5-aza-dC at increasing doses
# Assay type: cell-based, human
# experimental-conditions: Homo sapiens, 96 h, read-out: Dose B (5-aza-dC concentration at the 50% inhibition of cell viability, IC 50)
measured-parameter: pIC50
Scale for pIC50: -log10 of concentration given in mol/L; no unit attached.

Returns the measured pIC50 for the input compound. Input: Nc1ncn([C@H]2C[C@H](O)[C@@H](CO)O2)c(=O)n1
4.11

----------
# Tested on: BC173
# assay: Cell viability (WST-1) with 5-aza-dC at increasing doses
# Format: cell-based, human
# experimental-conditions: Homo sapiens, 96 h, read-out: Dose B (5-aza-dC concentration at the 50% inhibition of cell viability, IC 50)
measured-parameter: IC50 (µM)
A number alone suffices; assume µM.

Returns the measured IC50 for the input compound. Input: Nc1ncn([C@H]2C[C@H](O)[C@@H](CO)O2)c(=O)n1 [5-aza-dC, 5-aza-2′ deoxycytidine]
117
